Provide the reported protein stability index of each item.
B1: FCHO1 (parent)
chain: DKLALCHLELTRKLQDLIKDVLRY

- Variants of: B1
- Method: protein stability index of a GFP-peptide fusion (GPS, HEK-293T) (PSI 1-6); higher = more stable;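 note: lentivirally expressed fusions sorted by FACS into six bins by GFP to DsRed ratio, PSI derived from sequencing read proportions per bin multiplied by bin number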
- Protocol Conditions: c terminus: a fixed tail appended
Reply with just the number.

Quick one: give measured protein stability index for V21Y
2.3

Quick one: give measured protein stability index for A4L
1.98

Quick one: give measured protein stability index for L17P
3.05

Quick one: give measured protein stability index for K2S
2.21

Quick one: give measured protein stability index for R23Q
3.15

Quick one: give measured protein stability index for R12E
1.54

Quick one: give measured protein stability index for R23P
1.2

Quick one: give measured protein stability index for K2A
1.43

Quick one: give measured protein stability index for H7L
1.56

Quick one: give measured protein stability index for R12H
2.98

Quick one: give measured protein stability index for E9L
2.72
